- System: K. pneumoniae NVT1001 strains with carbapenemase plasmids
- PROCEDURE TEXT: Etest MIC of β-lactams, OmpK35/36 loss, ΔramR and/or carbapenemase (Table 9)
- Type: cell-based, Klebsiella pneumoniae
- CONDITIONS: Klebsiella pneumoniae, KPC-3 on pACYC177; ΔramRΔ36 (ΔramRΔompK36 mutant)
ATTRIBUTE MEASURED: MIC

For orientation, consider the following solved cases.
COMPOUND	MIC
C[C@@H](O)[C@H]1C(=O)N2C(C(=O)O)=C(SCCN=CN)C[C@H]12 [Imipenem]	> 32 µg/mL
CO/N=C(\C(=O)N[C@@H]1C(=O)N2C(C(=O)O)=C(COC(C)=O)CS[C@H]12)c1csc(N)n1 [Cefotaxime]	> 256 µg/mL
C[C@H]1[C@H](NC(=O)/C(=N\OC(C)(C)C(=O)O)c2csc(N)n2)C(=O)N1S(=O)(=O)O [Aztreonam]	> 256 µg/mL
CC(=O)OCC1=C(C(=O)O)N2C(=O)[C@@H](NC(=O)Cc3cccs3)[C@H]2SC1 [Cephalothin]	> 256 µg/mL
C[C@@H](O)[C@H]1C(=O)N2C(C(=O)O)=C(S[C@@H]3CN[C@H](CNS(N)(=O)=O)C3)[C@H](C)[C@H]12 [Doripenem]	> 32 µg/mL

# evaluate next
**Q:** For the compound CO[C@@]1(NC(=O)Cc2cccs2)C(=O)N2C(C(=O)O)=C(COC(N)=O)CS[C@@H]21 [Cefoxitin] , what MIC is on record?
**A:** > 256 µg/mL
